Field: MIC. Provide a value for each of the molecules that follow.
System: Stenotrophomonas maltophilia
Experiment: Antimicrobial activity against Stenotrophomonas maltophilia assessed as inhibition of growth incubated for 18 hrs by CLSI guidelines based assay
Type: functional
Numbers only, in mg/L.

{"smi": "C[N+](C)(CCCCCOc1ccccc1)CCCOc1cc(OCCC[N+](C)(C)CCCCCOc2ccccc2)cc(OCCC[N+](C)(C)CCCCCOc2ccccc2)c1.[Br-].[Br-].[Br-]", "units symbol": "mg/L", "MIC": 32}

Enquiry: Consider the molecule `CCCCCCCC[N+](C)(C)CCCOc1cc(OCCC[N+](C)(C)CCCCCCCC)cc(OCCC[N+](C)(C)CCCCCCCC)c1.[Br-].[Br-].[Br-]` and give its measured MIC.
Return: 4

###

Can you tell me HC50 for the items I'm about to list?
Assay: Hemolytic activity in red blood cells (unknown origin)
Type: toxicity, cell-based, Erythrocyte
In your response, the unit should come after the numeric value.

{"smi": "CCCCCCNC(=O)C[N+](C)(C)CCCCCCCCCCCC[N+](C)(C)CC(=O)NCCCCCC.[Br-].[Br-]", "HC50": "805 µg/mL"}

Enquiry: Can you share its HC50? I mean this molecule: `CCCCCCCNC(=O)C[N+](C)(C)CCCCCCCCCCCC[N+](C)(C)CC(=O)NCCCCCCC.[Br-].[Br-]`
Return: 1220 µg/mL

###

Exercise: state measured MIC for each of the compounds provided.
Test system: Stenotrophomonas maltophilia
Experiment: Antimicrobial activity against Stenotrophomonas maltophilia assessed as inhibition of growth incubated for 18 hrs by CLSI guidelines based assay
Assay type: functional
One number for each entry, in µg/mL.

{"compound": "CCCCCCCC[N+](C)(C)CCCCOc1ccc(OCCCC[N+](C)(C)CCCCCCCC)c(OCCCC[N+](C)(C)CCCCCCCC)c1.[Br-].[Br-].[Br-]", "target or system": "Stenotrophomonas maltophilia", "MIC / µg/mL": 1}
{"compound": "CCCCCC[N+](C)(C)CCCCCOc1cc(OCCCCC[N+](C)(C)CCCCCC)cc(OCCCCC[N+](C)(C)CCCCCC)c1.[Br-].[Br-].[Br-]", "target or system": "Stenotrophomonas maltophilia", "MIC / µg/mL": 4}
{"compound": "C[C@@H](O)[C@H]1C(=O)N2C(C(=O)O)=C(S[C@@H]3CN[C@H](C(=O)N(C)C)C3)[C@H](C)[C@H]12 [MEROPENEM]", "target or system": "Stenotrophomonas maltophilia", "MIC / µg/mL": 1}
{"compound": "CCCCCCCCCCCC[N+](C)(C)CCCCCOc1cc(OCCCCC[N+](C)(C)CCCCCCCCCCCC)cc(OCCCCC[N+](C)(C)CCCCCCCCCCCC)c1.[Br-].[Br-].[Br-]", "target or system": "Stenotrophomonas maltophilia", "MIC / µg/mL": 64}

Now look at this entry.
Enquiry: Which MIC value belongs to `CCCCCCCC[N+](C)(C)CCCCCOc1cc(OCCCCC[N+](C)(C)CCCCCCCC)cc(OCCCCC[N+](C)(C)CCCCCCCC)c1.[Br-].[Br-].[Br-]` ?
Return: 2

###

Test system: Staphylococcus aureus
Assay: Antibacterial activity against NDM-1 gene-resistant Staphylococcus aureus assessed as inhibition of bacterial growth incubated for 18 hrs by CLSI guidelines based assay
Format: functional
measured parameter: MIC90

Would you please look over these solved cases?
{"compound": "C[C@H]1c2cccc(O)c2C(=O)C2=C(O)[C@]3(O)C(=O)C(C(N)=O)=C(O)[C@@H](N(C)C)[C@@H]3[C@@H](O)[C@@H]21 [DOXYCYCLINE ANHYDROUS]", "test result": "> 32 µg/mL"}
{"compound": "CNC(C)[C@@H]1CC[C@@H](N)[C@@H](O[C@H]2[C@H](O)[C@@H](O[C@H]3OC[C@](C)(O)[C@H](NC)[C@H]3O)[C@H](N)C[C@@H]2N)O1.CN[C@@H]1[C@@H](O)[C@@H](O[C@@H]2[C@@H](O)[C@H](O[C@H]3O[C@H](C(C)N)CC[C@H]3N)[C@@H](N)C[C@H]2N)OC[C@]1(C)O.CN[C@@H]1[C@@H](O)[C@@H](O[C@@H]2[C@@H](O)[C@H](O[C@H]3O[C@H](CN)CC[C@H]3N)[C@@H](N)C[C@H]2N)OC[C@]1(C)O (stereo not given in full)", "test result": "> 32 µg/mL"}
{"compound": "CC[C@H]1OC(=O)[C@H](C)[C@@H](O[C@H]2C[C@@](C)(OC)[C@@H](O)[C@H](C)O2)[C@H](C)[C@@H](O[C@@H]2O[C@H](C)C[C@H](N(C)C)[C@H]2O)[C@](C)(O)C[C@@H](C)C(=O)[C@H](C)[C@@H](O)[C@]1(C)O", "test result": "> 32 µg/mL"}
{"compound": "CCCCCCCC[N+](C)(C)CCCCOc1cc(OCCCC[N+](C)(C)CCCCCCCC)cc(OCCCC[N+](C)(C)CCCCCCCC)c1.[Br-].[Br-].[Br-]", "test result": "2 µg/mL"}

API: the following record is the query input.
Enquiry: Which MIC90 value belongs to `CO[C@H]1/C=C/O[C@@]2(C)Oc3c(C)c(O)c4c(O)c(c(/C=N/N5CCN(C)CC5)c(O)c4c3C2=O)NC(=O)/C(C)=C\C=C\[C@H](C)[C@H](O)[C@@H](C)[C@@H](O)[C@@H](C)[C@H](OC(C)=O)[C@@H]1C` ?
Return: > 32 µg/mL

###

Experiment: Selectivity index, ratio of HC50 for sheep red blood cells to MIC for Staphylococcus aureus
Assay type: toxicity, cell-based, RBC
Conditions: read-out: Selectivity Index
measured parameter: selectivity ratio

Look over these answered cases.
{"smi": "C[N+](C)(CCCCCOc1cc(OCCCCC[N+](C)(C)CCCc2ccccc2)cc(OCCCCC[N+](C)(C)CCCc2ccccc2)c1)CCCc1ccccc1.[Br-].[Br-].[Br-]", "selectivity ratio": "> 1280"}
{"smi": "C[C@@H](O)[C@H]1C(=O)N2C(C(=O)O)=C(S[C@@H]3CN[C@H](C(=O)N(C)C)C3)[C@H](C)[C@H]12", "selectivity ratio": 2440}

For the next question, use this molecule.
Enquiry: Which value of selectivity ratio has been reported for `CCCC[N+](C)(C)CCCCCOc1cc(OCCCCC[N+](C)(C)CCCC)cc(OCCCCC[N+](C)(C)CCCC)c1.[Br-].[Br-].[Br-]` in the records?
Return: > 20

###

Assay: Cytotoxicity against human Gastric mucosal cells measured after 24 hrs by CCK-8 assay
Assay type: toxicity, cell-based, Gastric mucosal cell
measured parameter: CC50 at 24 h (µg/mL)
Answers are plain numbers, in µg/mL.

Solved entries (count: 3):
{"smi": "C=C[C@]1(C)C[C@@H](OC(=O)CSC(C)(C)CNC(=O)[C@H](N)C(C)C)[C@]2(C)[C@H](C)CC[C@]3(CCC(=O)[C@H]32)[C@@H](C)[C@@H]1O", "CC50 at 24 h, µg/mL": 45.7}
{"smi": "CCCCCCCCCCCC[N+](C)(C)CCOc1ccccc1", "CC50 at 24 h, µg/mL": 74.5}
{"smi": "CS(=O)(=O)c1ccc([C@@H](O)[C@@H](CF)NC(=O)C(Cl)Cl)cc1", "CC50 at 24 h, µg/mL": 121}

Proceed to the following item.
Enquiry: Which value of CC50 at 24 h has been reported for `CCCCCCCNC(=O)C[N+](C)(C)CCCCCCCCCCCC[N+](C)(C)CC(=O)NCCCCCCC.[Br-].[Br-]` in the records?
Return: 38.1

###

Tested on: Staphylococcus aureus
Test: Antimicrobial activity against Staphylococcus aureus assessed as inhibition of growth incubated for 18 hrs by CLSI guidelines based assay
Type: functional
Threshold 4 µg/mL: MIC strictly smaller gives met, otherwise not met.

{"smi": "CCCCCCCCCCCC[N+](C)(C)CCCOc1cc(OCCC[N+](C)(C)CCCCCCCCCCCC)cc(OCCC[N+](C)(C)CCCCCCCCCCCC)c1.[Br-].[Br-].[Br-]", "category label": "not met"}
{"smi": "CCCCCCCCCCCC[N+](C)(C)CCCCCOc1cc(OCCCCC[N+](C)(C)CCCCCCCCCCCC)cc(OCCCCC[N+](C)(C)CCCCCCCCCCCC)c1.[Br-].[Br-].[Br-]", "category label": "not met"}
{"smi": "C[N+](C)(CCCCCOc1cc(OCCCCC[N+](C)(C)CCCc2ccccc2)cc(OCCCCC[N+](C)(C)CCCc2ccccc2)c1)CCCc1ccccc1.[Br-].[Br-].[Br-]", "category label": "met"}
{"smi": "CCCC[N+](C)(C)CCCCCOc1cc(OCCCCC[N+](C)(C)CCCC)cc(OCCCCC[N+](C)(C)CCCC)c1.[Br-].[Br-].[Br-]", "category label": "not met"}
{"smi": "CCCC[N+](C)(C)CCCCOc1cc(OCCCC[N+](C)(C)CCCC)cc(OCCCC[N+](C)(C)CCCC)c1.[Br-].[Br-].[Br-]", "category label": "not met"}

Consider the record given below.
Enquiry: # check: MIC < 4 µg/mL for `C[N+](C)(CCCCCOc1cc(OCCCCC[N+](C)(C)CCCCOc2ccccc2)cc(OCCCCC[N+](C)(C)CCCCOc2ccccc2)c1)CCCCOc1ccccc1.[Br-].[Br-].[Br-]`
Return: met
